Tested on: NCI-H460
Protocol Description: Antiproliferative activity against human NCI-H460 cells after 72 hrs
Assay type: functional, cell-based
Applied Conditions: NCI-H460, 72 h
Recorded IC50 by entry
Quick note: give the figure in µg/mL, leave out the unit.

Data point: `CC(=O)O[C@H](C[C@@H](OC(C)=O)C(C)(C)O)[C@@H](C)[C@H]1[C@H](O)C[C@@]2(C)[C@@H]3CC=C4[C@@H](CCC(=O)C4(C)C)[C@]3(C)C(=O)C[C@]12C` ; IC50 = 10.6

Data point: `CC(C)(O)/C=C/C(=O)[C@](C)(O)[C@H]1[C@H](O)C[C@@]2(C)[C@@H]3CC=C4[C@@H](C[C@H](O)C(=O)C4(C)C)[C@]3(C)C(=O)C[C@]12C` ; IC50 = 0.12

Data point: `CC(=O)OC(C)(C)/C=C/C(=O)[C@](C)(O)[C@H]1[C@H](O)C[C@@]2(C)[C@@H]3CC=C4[C@H](C[C@H](O)C(=O)C4(C)C)[C@]3(C)C(=O)C[C@]12C` ; IC50 = 0.011

Data point: `CC[C@@]1(O)C(=O)OCc2c1cc1n(c2=O)Cc2cc3c(CN(C)C)c(O)ccc3nc2-1` ; IC50 = 0.008

Data point: `CC(=O)OC(C)(C)/C=C/C(=O)[C@@](C)(O)[C@H]1CC[C@@]2(C)[C@@H]3CC=C4[C@@H](C[C@H](O)C(=O)C4(C)C)[C@]3(C)C(=O)C[C@]12C` ; IC50 = 0.06

Data point: `CC(=O)O[C@H](C[C@@H](OC(C)=O)C(C)(C)O)[C@@H](C)[C@H]1CC[C@@]2(C)[C@@H]3CC=C4[C@@H](CCC(=O)C4(C)C)[C@]3(C)[C@]3(O)C[C@]12CO3` ; IC50 = 0.3

Data point: `CC(=O)O[C@H](C[C@@H](OC(C)=O)C(C)(C)O)[C@@H](C)[C@H]1CC[C@@]2(C)[C@@H]3CC=C4[C@@H](CCC(=O)C4(C)C)[C@]3(C)CC[C@]12CO` ; IC50 = 3.5

Hello, the source for this data is ChEMBL document CHEMBL1158138, in case you need it.
